Source of measurements: the antibiotic and cytotoxicity screens of Wong et al. (2023)

Tested on: S. aureus RN4220
Test: growth inhibition call (relative growth <= 0.2)
Conditions: 50 µM
Out of some 39,000 compounds screened, about 500 (1.3%) were called active. The entries come from a sample that favours actives as a whole.
observationType: growth inhibition call

Q: Entry under review: `Cc1ccc(S(=O)(=O)Nc2ccc3c(c2)C(=O)N([C@H](C)CO)C[C@@H](C)[C@@H](CN(C)Cc2ccc4c(c2)OCO4)OCCCC[C@@H](C)O3)cc1` . Reported growth inhibition call?
Result: inactive

Q: Which measured growth inhibition call value corresponds to `COc1ccc(S(=O)(=O)N(C)C[C@@H]2Oc3ccc(NS(C)(=O)=O)cc3C(=O)N([C@H](C)CO)C[C@@H]2C)cc1` ?
Result: inactive

Q: I'd like to know its growth inhibition call. The compound in question is `C[C@H]1CN([C@@H](C)CO)C(=O)c2cccc(NC(=O)Nc3ccc(C(F)(F)F)cc3)c2O[C@@H]1CN(C)C(=O)Nc1ccc(F)cc1`
Result: inactive
